Molecular target: T1, human CD71 extracellular domain (human, UniProt P02786 89-760)
T1 construct: also called hCD71; human CD71-ECD
T1 sequence (P02786 89-760): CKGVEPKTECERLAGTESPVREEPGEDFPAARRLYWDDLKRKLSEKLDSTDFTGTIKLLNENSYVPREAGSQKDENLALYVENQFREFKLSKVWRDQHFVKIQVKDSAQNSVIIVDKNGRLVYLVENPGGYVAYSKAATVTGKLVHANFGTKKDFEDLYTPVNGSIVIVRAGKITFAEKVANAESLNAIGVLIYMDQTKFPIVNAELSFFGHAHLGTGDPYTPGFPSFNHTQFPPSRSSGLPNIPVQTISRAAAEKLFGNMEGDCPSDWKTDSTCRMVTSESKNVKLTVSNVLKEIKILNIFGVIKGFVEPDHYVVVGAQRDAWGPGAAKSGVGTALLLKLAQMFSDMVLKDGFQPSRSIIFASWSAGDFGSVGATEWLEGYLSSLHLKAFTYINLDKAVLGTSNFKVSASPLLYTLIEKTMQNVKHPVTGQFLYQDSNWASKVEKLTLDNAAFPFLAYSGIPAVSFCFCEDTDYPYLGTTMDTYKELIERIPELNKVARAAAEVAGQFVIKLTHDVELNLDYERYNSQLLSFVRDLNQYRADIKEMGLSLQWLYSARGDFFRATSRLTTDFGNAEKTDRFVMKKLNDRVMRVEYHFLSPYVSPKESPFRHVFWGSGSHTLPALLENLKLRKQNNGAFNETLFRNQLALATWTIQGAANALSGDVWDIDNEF
Experiment: primary ELISA, signal ratio to HSA
REPORTED PROPERTY: hCD71:HSA

Example entries begin here.
CD71-binding FN3 domain of SEQ ID NO: 140 (designed binder) MSLPAPKNLVVSRVTEDSARLSWTAPDAAFDSFFIGYLEPQPPGEAIHLYVPGSERSYDLTGLKPGTEYNVTIQGVKGGFPSMPLSAIFTT	163
CD71-binding FN3 domain of SEQ ID NO: 175 (designed binder) MSLPAPKNLVVSRVTEDSARLSWTAPDAAFDSFEIAYQELSLWGEAIVLTVPGSERSYDLTGLKPGTEYVVFIGGVKGGVWSVPLSAIFTT	21

A. CD71-binding FN3 domain of SEQ ID NO: 199 (designed binder) MSLPAPKNLVVSRVTEDSARLSWTAPDAAFDSFEIGYFENLYLGEAIVLTVPGYERSYDLTGLKPGTEYWVQIGGVKGGNWSAPLSAIFTT
B. CD71-binding FN3 domain of SEQ ID NO: 212 (designed binder) MSLPAPKNLVVSRVTEDSARLSWTAPDAAFDSFEIGYFENLYLGEAIVLTVPGSERYYDLTGLKPGTEYWVQIGGVKGGNWSAPLSAIFTT
# query: argmin of hCD71:HSA over A and B When you have decided, please share the label of that item. B
(B: 97, A: 170)
